- ASSAY_SYSTEM: UniProtKB O43570
- Sequence (O43570 whole entry): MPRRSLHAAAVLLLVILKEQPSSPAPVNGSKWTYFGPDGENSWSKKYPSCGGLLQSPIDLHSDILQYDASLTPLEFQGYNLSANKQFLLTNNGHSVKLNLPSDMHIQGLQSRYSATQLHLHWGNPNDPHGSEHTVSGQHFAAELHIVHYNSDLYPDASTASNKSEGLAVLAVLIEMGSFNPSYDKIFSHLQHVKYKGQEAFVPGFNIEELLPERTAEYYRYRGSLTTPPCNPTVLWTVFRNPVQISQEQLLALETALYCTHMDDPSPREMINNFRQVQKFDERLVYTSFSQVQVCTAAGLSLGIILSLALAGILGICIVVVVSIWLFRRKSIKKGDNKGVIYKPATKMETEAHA
- EXPERIMENTAL_PROTOCOL: Inhibition of recombinant human carbonic anhydrase12 preincubated for 10 mins followed by CO2 solution addition by phenol red dye based stopped flow CO2 hydration assay
pKi: −log10 of the molar value.
OBSERVED_PROPERTY: pKi

smiles_entry=COc1cc(NC(=O)/C=C/c2sc(N3CCOCC3)nc2-c2ccc(Cl)cc2)cc(OC)c1OC assay_system="UniProtKB O43570" result="< 4.00"
smiles_entry=O=C(/C=C/c1sc(N2CCOCC2)nc1-c1ccc([N+](=O)[O-])cc1)Nc1ccc(Br)cc1 assay_system="UniProtKB O43570" result=5.06
smiles_entry=COc1ccc(-c2nc(N3CCOCC3)sc2/C=C/C(=O)Nc2ccccc2N)cc1 assay_system="UniProtKB O43570" result="< 4.00"
smiles_entry=Nc1ccccc1NC(=O)/C=C/c1sc(N2CCOCC2)nc1-c1ccccc1 assay_system="UniProtKB O43570" result="< 4.00"
